Tested on: WI-38 cells
Conditions: read-out: Est. ED50; dose response 0.6-20 μM; H2O2-resistance
pEC50: −log10 of the molar value.
Binary call on pEC50: t from 5 upward, f beneath that.

Consider the following illustrative entries.
- Compound: "Cc1ccc(NC(=O)c2ccc([N+](=O)[O-])o2)cc1C [Gr-1F]"
  Assigned Category: "t"
- Compound: "COc1ccc(C(=O)/C=C/c2ccccc2Br)c(OC)c1 [Gr-4B]"
  Assigned Category: "t"
- Compound: "COc1cc2c(no[n+]2[O-])n2nnnc12 [O11]"
  Assigned Category: "t"

Evaluate Cc1cc(N)n(-c2ccccc2C(=O)O)n1 [Gr-6A] : pEC50 at minimum 5?
f

###

System: FOXO3
Assay: qPCR analysis of FOXO3-regulated genes
Format: cell-based, human
Conditions: score
Assay Metric: K = Sestrin induction

See these solved cases before continuing.
- Substance Smiles: "COc1ccc(/C=C2\\SC(=N)N(c3nccs3)C2=O)cc1"
  K = Sestrin induction: 1
- Substance Smiles: "CCc1ccccc1NC(=O)c1ccc([N+](=O)[O-])o1"
  K = Sestrin induction: 0
- Substance Smiles: "COc1ccc(C(=O)/C=C/c2cccc(Cl)c2)c(OC)c1"
  K = Sestrin induction: 0
- Substance Smiles: "O=C(NCc1cccnc1)/C(=C\\c1ccc(Br)cc1)S(=O)(=O)c1ccccc1"
  K = Sestrin induction: 0
- Substance Smiles: "O=C(Nc1ccc(Cl)c(Cl)c1)c1ccc([N+](=O)[O-])o1"
  K = Sestrin induction: 0

Tell me the measured K = Sestrin induction of O=C(NCc1cccnc1)/C(=C\c1cccc(Oc2ccccc2)c1)S(=O)(=O)c1ccccc1 , please.
0

Tell me the measured K = Sestrin induction of CC(C)(C)c1ccc(OCC(=O)Nc2ccc3c4c(cccc24)C(=O)NC3=O)cc1 , please.
0

Tell me the measured K = Sestrin induction of COc1cc2c(no[n+]2[O-])n2nnnc12 , please.
1

Tell me the measured K = Sestrin induction of O=C1NCCCc2cc(Cl)sc21 , please.
0

Tell me the measured K = Sestrin induction of Cc1cc(N)n(-c2ccccc2C(=O)O)n1 , please.
0

###

Tested on: NRF2
Assay: qPCR analysis of NRF2-regulated genes
Assay type: cell-based, human
Settings: 2-point score
Assay Metric: F = Potential NRF2 Activation
Please reply with the number alone, leaving off any unit.

See these solved cases before continuing.
- Molecule: "CC1C(=O)C(C)C(c2cc(Cl)ccc2O)NC1c1cc(Cl)ccc1O (centres unmarked)"
  Tgt: "NRF2"
  F = Potential NRF2 Activation: 2
- Molecule: "COc1cc2c(no[n+]2[O-])n2nnnc12"
  Tgt: "NRF2"
  F = Potential NRF2 Activation: 0
- Molecule: "COc1ccc(C(=O)/C=C/c2ccccc2Br)c(OC)c1"
  Tgt: "NRF2"
  F = Potential NRF2 Activation: 2
- Molecule: "Cc1cc(C)c(C(=O)/C=C/c2ccccc2F)c(O)n1"
  Tgt: "NRF2"
  F = Potential NRF2 Activation: 2
- Molecule: "N=C1S/C(=C\\c2cn(-c3ccccc3)nc2-c2cccs2)C(=O)N1c1nccs1"
  Tgt: "NRF2"
  F = Potential NRF2 Activation: 0

State its F = Potential NRF2 Activation on NRF2: CCc1ccccc1NC(=O)c1ccc([N+](=O)[O-])o1
0

State its F = Potential NRF2 Activation on NRF2: O=C(Nc1ccc(Cl)c(Cl)c1)c1ccc([N+](=O)[O-])o1
0

State its F = Potential NRF2 Activation on NRF2: O=C1NCCCc2cc(Cl)sc21
0

State its F = Potential NRF2 Activation on NRF2: Nc1ccccc1S(=O)(=O)Nc1cccc2cccnc12
0

State its F = Potential NRF2 Activation on NRF2: Oc1ccccc1-c1noc(-c2ccccc2O)n1
0

State its F = Potential NRF2 Activation on NRF2: Cc1ccc(S(=O)(=O)Nc2cccc3cccnc23)cc1
0

###

System: phosphorylated γH2A.X and TP53BP1
Experiment: DNA damage marker analysis (immuno-staining)
Conditions: Homo sapiens, WI-38, 24 h, read-out: Experiment 2, H2A.X-P DNA damage foci staining (under H2O2 stress treatment), at 10 uM
Entries annotated with measured activity at 10 µM
Report only the number, with the unit % understood.

- Substance Smiles: "O=C1NCCCc2cc(Cl)sc21"
  activity at 10 µM / %: 216

State its activity at 10 µM on phosphorylated γH2A.X and TP53BP1: CCc1ccc(Oc2nc3ccccn3c(=O)c2/C=C(\C#N)C(=O)NC2CCCCC2)cc1
127

State its activity at 10 µM on phosphorylated γH2A.X and TP53BP1: O=C(Nc1cccc(C(F)(F)F)c1)c1ccc([N+](=O)[O-])o1
151

State its activity at 10 µM on phosphorylated γH2A.X and TP53BP1: CCCN1C/C(=C\c2ccc(F)cc2)C(=O)/C(=C/c2ccc(F)cc2)C1
58.4

State its activity at 10 µM on phosphorylated γH2A.X and TP53BP1: [O-][n+]1onc2c3nsnc3c(Br)cc21
129

###

Entries annotated with measured F = Potential NRF2 Activation
System: NRF2
Experiment: qPCR analysis of NRF2-regulated genes
Type: cell-based, human
Settings: 2-point score
Please reply with the number alone, leaving off any unit.

- Molecule: "Cc1cc(N)n(-c2ccccc2C(=O)O)n1 [Gr-6A]"
  Number: 0
- Molecule: "COc1ccc(C(=O)/C=C/c2cccc(Cl)c2)c(OC)c1 [Gr-4C]"
  Number: 2
- Molecule: "COc1ccc(C(=O)/C=C/c2ccc(F)cc2)c(OC)c1 [Gr-4A]"
  Number: 2
- Molecule: "O=C(/C=C/c1cn(-c2ccccc2)nc1-c1cccnc1)c1ccccc1 [Gr-6B]"
  Number: 2
- Molecule: "CNC(=O)/C(C#N)=C/c1c(Oc2ccc(C(C)(C)C)cc2)nc2ccccn2c1=O [Gr-5D]"
  Number: 2
- Molecule: "O=C(Nc1cc(C(F)(F)F)ccc1Cl)c1ccc([N+](=O)[O-])o1 [Gr-1B]"
  Number: 0

State its F = Potential NRF2 Activation on NRF2: O=C(Nc1nc(C23CC4CC(CC(C4)C2)C3)cs1)C(c1ccccc1)c1ccccc1 [O10]
0

State its F = Potential NRF2 Activation on NRF2: O=C(NCc1cccnc1)/C(=C\c1ccc(Br)cc1)S(=O)(=O)c1ccccc1 [Gr-7B]
0

State its F = Potential NRF2 Activation on NRF2: O=[N+]([O-])c1ccccc1S(=O)(=O)Nc1cccc2cccnc12 [Gr-3A]
0

State its F = Potential NRF2 Activation on NRF2: CCc1ccc(Oc2nc3ccccn3c(=O)c2/C=C(\C#N)C(=O)NCc2ccco2)cc1 [Gr-5B]
2

State its F = Potential NRF2 Activation on NRF2: COC(=O)CCc1sc2c(c1[N+](=O)[O-])NC(=O)CCC2 [O20]
2

State its F = Potential NRF2 Activation on NRF2: Cc1ccc(NC(=O)c2ccc([N+](=O)[O-])o2)cc1C [Gr-1F]
0

State its F = Potential NRF2 Activation on NRF2: O=C(c1ccc([N+](=O)[O-])o1)N1CCc2ccccc21 [O13]
2

State its F = Potential NRF2 Activation on NRF2: CC(C)(C)c1ccc(OCC(=O)Nc2ccc3c4c(cccc24)C(=O)NC3=O)cc1 [O22]
0

State its F = Potential NRF2 Activation on NRF2: CCCN1C/C(=C\c2ccc(F)cc2)C(=O)/C(=C/c2ccc(F)cc2)C1 [O15]
2

State its F = Potential NRF2 Activation on NRF2: Oc1ncnc2sc3c(c12)CCC3 [O14]
0

###

System: C. elegans
Assay: C. elegans lifespan assays (liquid and plate)
Type: in vivo, Caenorhabditis elegans
Conditions: Caenorhabditis elegans, 60 μM, in liquid, wild type, with FuDR, 2.5 × 10^9 bacteria/ml; read-out: relative change of mean lifespan vs control, Trial 2
Entries annotated with measured ILS at 60 µM
Report only the number, with the unit % understood.

State its ILS at 60 µM on C. elegans: CCc1ccccc1NC(=O)c1ccc([N+](=O)[O-])o1
1.7

###

Assay: in vitro
Format: cell-based, human
Details: human
Binary call on cytotoxicity at 24 h, 10 uM: True from 50% upward, False beneath that.

- Substance Smiles: "COc1cccc(/C=C2\\CN(C)C/C(=C\\c3cccc(OC)c3OC)C2=O)c1OC"
  Assigned Category: "False"
- Substance Smiles: "O=C(NCc1cccnc1)/C(=C/c1ccc(-c2ccc(Cl)cc2)o1)S(=O)(=O)c1ccccc1"
  Assigned Category: "True"
- Substance Smiles: "NS(=O)(=O)c1ccc(NC(=O)c2ccc([N+](=O)[O-])o2)cc1"
  Assigned Category: "False"

Then this molecule:
Evaluate O=C(NCc1cccnc1)/C(=C\c1cccc(Oc2ccccc2)c1)S(=O)(=O)c1ccccc1 : cytotoxicity at 24 h, 10 uM at minimum 50%?
True
